System: CRBN (Homo sapiens)
Construct: endogenous in cells; host or cells: primary human T cells / CD8+ T cells from peripheral blood
Procedure text: Western blot for expression of CRBN relative to vinculin in human T cells (CRBN degradation)
Type: cell-based
Measurement setup: 10uM; read-out: Relative Density of CRBN (% of DMSO)
Recorded endpoint: remaining activity at 10 µM (%)

O=C1CCC(N2C(=O)c3cccc(NC(=O)CCCC(=O)Nc4cccc5c4C(=O)N(C4CCC(=O)NC4=O)C5=O)c3C2=O)C(=O)N1 (centres unmarked)    19.8
O=C1CCC(N2C(=O)c3cccc(NC(=O)CCc4cn(CC(=O)Nc5cccc6c5C(=O)N(C5CCC(=O)NC5=O)C6=O)nn4)c3C2=O)C(=O)N1 (centres unmarked)    131
Cc1nc2cccc(CCc3ccc(CCc4cccc5nc(C)n(C6CCC(=O)NC6=O)c(=O)c45)cc3)c2c(=O)n1C1CCC(=O)NC1=O (centres unmarked)    133
O=C1CCC(N2Cc3c(NC(=O)CCCc4cn(CC(=O)Nc5cccc6c5CN(C5CCC(=O)NC5=O)C6=O)nn4)cccc3C2=O)C(=O)N1 (centres unmarked)    132
O=C1CCC(N2C(=O)c3cccc(NC(=O)[C@H]4CC[C@@H](C(=O)Nc5cccc6c5C(=O)N(C5CCC(=O)NC5=O)C6=O)CC4)c3C2=O)C(=O)N1 (some centres unmarked)    10.3
O=C1CCC(N2Cc3c(C#CCCCCCCC#Cc4cccc5c4CN(C4CCC(=O)NC4=O)C5=O)cccc3C2=O)C(=O)N1 (centres unmarked)    10.3
O=C1CCC(N2Cc3c(C#CCCCC(=O)Nc4cccc5c4CN(C4CCC(=O)NC4=O)C5=O)cccc3C2=O)C(=O)N1 (centres unmarked)    79.7
O=C(CCc1cccc2c1CN(C1CCC(=O)NC1=O)C2=O)NCCOCCNC(=O)CCc1cccc2c1CN(C1CCC(=O)NC1=O)C2=O (centres unmarked)    86.9

* * *

System: CRBN (Homo sapiens, UniProt Q96SW2)
Construct: endogenous in cells; host or cells: primary human T cells / CD8+ T cells from peripheral blood
Sequence (Q96SW2 whole entry): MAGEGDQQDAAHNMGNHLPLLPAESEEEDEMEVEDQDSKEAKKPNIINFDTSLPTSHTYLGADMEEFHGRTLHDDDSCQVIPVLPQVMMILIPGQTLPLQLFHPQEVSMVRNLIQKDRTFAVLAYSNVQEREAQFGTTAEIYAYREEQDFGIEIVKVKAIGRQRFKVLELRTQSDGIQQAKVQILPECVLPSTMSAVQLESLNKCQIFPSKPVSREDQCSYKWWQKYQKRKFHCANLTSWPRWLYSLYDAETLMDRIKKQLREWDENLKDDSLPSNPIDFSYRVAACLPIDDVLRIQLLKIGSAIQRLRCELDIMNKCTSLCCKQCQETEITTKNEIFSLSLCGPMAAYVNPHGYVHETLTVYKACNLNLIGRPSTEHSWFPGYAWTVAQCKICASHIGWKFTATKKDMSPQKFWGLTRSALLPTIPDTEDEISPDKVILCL
Procedure text: Western blot for expression of CRBN relative to vinculin in human T cells (CRBN degradation)
Assay type: cell-based
Measurement setup: 24 h, 10nM; human T cells, 24 hours; read-out: Relative Density of CRBN (% of DMSO)
As shown below, each of these molecules has a reported remaining activity at 0.01 µM value.
Recorded endpoint: remaining activity at 0.01 µM

O=C1CC[C@H](N2Cc3c(CCCOCCOCCCc4cccc5c4CN([C@H]4CCC(=O)NC4=O)C5=O)cccc3C2=O)C(=O)N1    3.42%
O=C1CCC(N2C(=O)c3cccc(NC(=O)CCCCCCCC(=O)Nc4cccc5c4C(=O)N(C4CCC(=O)NC4=O)C5=O)c3C2=O)C(=O)N1 (stereo not drawn)    29.8%
O=C1CCC(N2C(=O)c3cccc(NC(=O)CCCCC(=O)Nc4cccc5c4C(=O)N(C4CCC(=O)NC4=O)C5=O)c3C2=O)C(=O)N1 (stereo not drawn)    95.3%
Cc1nc2cccc(NC(=O)CCCCCCC(=O)Nc3cccc4nc(C)n(C5CCC(=O)NC5=O)c(=O)c34)c2c(=O)n1C1CCC(=O)NC1=O (stereo not drawn)    139%
O=C1CCC(N2Cc3c(C#CCCCCCCCC(=O)Nc4cccc5c4CN(C4CCC(=O)NC4=O)C5=O)cccc3C2=O)C(=O)N1 (stereo not drawn)    55.5%
Cc1nc2cccc(NC(=O)CCCCCCCCC(=O)Nc3cccc4nc(C)n(C5CCC(=O)NC5=O)c(=O)c34)c2c(=O)n1C1CCC(=O)NC1=O (stereo not drawn)    132%
O=C1CCC(N2Cc3c(NC(=O)CCCc4cn(CC(=O)Nc5cccc6c5CN(C5CCC(=O)NC5=O)C6=O)nn4)cccc3C2=O)C(=O)N1 (stereo not drawn)    213%
Cc1nc2c(NCc3ccc(CNc4cccc5c(=O)n(C6CCC(=O)NC6=O)c(C)nc45)cc3)cccc2c(=O)n1C1CCC(=O)NC1=O (stereo not drawn)    12.1%
O=C1CCC(N2Cc3c(NC(=O)CCCCCCCCC(=O)Nc4cccc5c4CN(C4CCC(=O)NC4=O)C5=O)cccc3C2=O)C(=O)N1 (stereo not drawn)    133%
Cc1nc2cccc(NC(=O)Cn3cc(CCCC(=O)Nc4cccc5c4CN(C4CCC(=O)NC4=O)C5=O)nn3)c2c(=O)n1C1CCC(=O)NC1=O (stereo not drawn)    243%
O=C(/C=C/c1cccc2c1CN(C1CCC(=O)NC1=O)C2=O)NCCOCCOCCOCCNC(=O)/C=C/c1cccc2c1CN(C1CCC(=O)NC1=O)C2=O (stereo not drawn)    108%
O=C1CCC(N2Cc3c(NC(=O)CCCCCCCC(=O)Nc4cccc5c4CN(C4CCC(=O)NC4=O)C5=O)cccc3C2=O)C(=O)N1 (stereo not drawn)    137%
O=C1CCC(N2Cc3c(NC(=O)CCc4cn(CC(=O)Nc5cccc6c5CN(C5CCC(=O)NC5=O)C6=O)nn4)cccc3C2=O)C(=O)N1 (stereo not drawn)    225%
O=C1CCC(N2Cc3c(NC(=O)CCc4cn(CC(=O)Nc5cccc6c5C(=O)N(C5CCC(=O)NC5=O)C6=O)nn4)cccc3C2=O)C(=O)N1 (stereo not drawn)    196%
O=C(COc1cccc2c1C(=O)N(C1CCC(=O)NC1=O)C2=O)NCCCOCCCNC(=O)COc1cccc2c1C(=O)N(C1CCC(=O)NC1=O)C2=O (stereo not drawn)    136%
O=C1CCC(N2C(=O)c3cccc(NCc4ccc(CNc5cccc6c5C(=O)N(C5CCC(=O)NC5=O)C6=O)cc4)c3C2=O)C(=O)N1 (stereo not drawn)    4%
O=C1CCC(N2Cc3c(NCc4ccc(CNc5cccc6c5CN(C5CCC(=O)NC5=O)C6=O)cc4)cccc3C2=O)C(=O)N1 (stereo not drawn)    2.32%
O=C1CCC(NC(=O)CCCC(=O)NC2CCC(=O)NC2=O)C(=O)N1 (stereo not drawn)    84.6%
O=C1CCC(N2C(=O)c3cccc(NC(=O)CCc4cn(CC(=O)Nc5cccc6c5C(=O)N(C5CCC(=O)NC5=O)C6=O)nn4)c3C2=O)C(=O)N1 (stereo not drawn)    207%
O=C1CCC(N2Cc3ccc(NC(=O)CCCCCCC(=O)Nc4ccc5c(c4)C(=O)N(C4CCC(=O)NC4=O)C5)cc3C2=O)C(=O)N1 (stereo not drawn)    38.8%
O=C1CCC(N2Cc3c(CCCCCCCCCC(=O)Nc4cccc5c4CN(C4CCC(=O)NC4=O)C5=O)cccc3C2=O)C(=O)N1 (stereo not drawn)    58.9%

* * *

System: cereblon (CRBN) (Homo sapiens)
Procedure text: Kd and % inhibition from FI
Assay type: binding
Measurement setup: FI; read-out: Kd (FI) (converted)
As shown below, each of these molecules has a reported Kd value.
Recorded endpoint: Kd

O=C(CCc1cccc2c1CN(C1CCC(=O)NC1=O)C2=O)NCCOCCOCCNC(=O)CCc1cccc2c1CN(C1CCC(=O)NC1=O)C2=O (stereo not drawn)    15 µM
O=C1CCC(N2Cc3c(CCCOCCOCCOCCCc4cccc5c4CN(C4CCC(=O)NC4=O)C5=O)cccc3C2=O)C(=O)N1 (stereo not drawn)    11.1 µM
O=C1CCC(N2Cc3c(NC(=O)CCCCC(=O)Nc4cccc5c4CN(C4CCC(=O)NC4=O)C5=O)cccc3C2=O)C(=O)N1 (stereo not drawn)    22.8 µM
O=C1CCC(N2Cc3c(NC(=O)CCCCCC(=O)Nc4cccc5c4CN(C4CCC(=O)NC4=O)C5=O)cccc3C2=O)C(=O)N1 (stereo not drawn)    22.1 µM
O=C(/C=C/c1cccc2c1CN(C1CCC(=O)NC1=O)C2=O)NCCOCCNC(=O)/C=C/c1cccc2c1CN(C1CCC(=O)NC1=O)C2=O (stereo not drawn)    15.2 µM
Cc1ncsc1-c1ccc(CNC(=O)[C@@H]2C[C@@H](O)CN2C(=O)[C@@H](NC(=O)COCCOCCOCCOCCCc2cccc3c2CN(C2CCC(=O)NC2=O)C3=O)C(C)(C)C)cc1 (stereo partly drawn)    13.6 µM
O=C(CCc1cccc2c1CN(C1CCC(=O)NC1=O)C2=O)NCCOCCNC(=O)CCc1cccc2c1CN(C1CCC(=O)NC1=O)C2=O (stereo not drawn)    14.3 µM
O=C(COc1cccc2c1C(=O)N(C1CCC(=O)NC1=O)C2=O)NCCCOCCCNC(=O)COc1cccc2c1C(=O)N(C1CCC(=O)NC1=O)C2=O (stereo not drawn)    13.7 µM
O=C(CCc1cccc2c1CN(C1CCC(=O)NC1=O)C2=O)NCCOCCOCCOCCNC(=O)CCc1cccc2c1CN(C1CCC(=O)NC1=O)C2=O (stereo not drawn)    14.8 µM

* * *

System: CRBN (Homo sapiens, UniProt Q96SW2)
Construct: endogenous in cells; host or cells: primary human T cells / CD8+ T cells from peripheral blood
Procedure text: Western blot for expression of CRBN relative to vinculin in human T cells (CRBN degradation)
Type: cell-based
Measurement setup: 10uM; read-out: Relative Density of CRBN (% of DMSO)
Threshold-based label: remaining activity at 10 µM under 90% gives true, remaining activity at 10 µM not under 90% gives false.

O=C1CCC(N2Cc3c(NC(=O)CCCCC(=O)Nc4cccc5c4CN(C4CCC(=O)NC4=O)C5=O)cccc3C2=O)C(=O)N1 (stereo not drawn) [EC1-149]    true
O=C(/C=C/c1cccc2c1CN(C1CCC(=O)NC1=O)C2=O)NCCOCCOCCOCCNC(=O)/C=C/c1cccc2c1CN(C1CCC(=O)NC1=O)C2=O (stereo not drawn) [SM3-009]    true
Cc1nc2cccc(NC(=O)CCCCCCC(=O)Nc3cccc4nc(C)n(C5CCC(=O)NC5=O)c(=O)c34)c2c(=O)n1C1CCC(=O)NC1=O (stereo not drawn) [MA10-077]    true
O=C1CCC(N2Cc3c(CCCCCCCCCC(=O)Nc4cccc5c4CN(C4CCC(=O)NC4=O)C5=O)cccc3C2=O)C(=O)N1 (stereo not drawn) [EC2-102]    true
O=C1CCC(N2Cc3c(OCc4ccc(CN5CCN(Cc6ccc(COc7cccc8c7CN(C7CCC(=O)NC7=O)C8=O)cc6)CC5)cc4)cccc3C2=O)C(=O)N1 (stereo not drawn) [EC1-168.MS]    false
O=C1CC[C@H](N2Cc3c(CCCOCCOCCCc4cccc5c4CN([C@H]4CCC(=O)NC4=O)C5=O)cccc3C2=O)C(=O)N1 [XS01-011]    true
O=C(CCc1cccc2c1CN(C1CCC(=O)NC1=O)C2=O)NCCOCCOCCOCCNC(=O)CCc1cccc2c1CN(C1CCC(=O)NC1=O)C2=O (stereo not drawn) [SM3-011]    true
O=C1CCC(N2Cc3ccc(NC(=O)CCCC(=O)Nc4ccc5c(c4)C(=O)N(C4CCC(=O)NC4=O)C5)cc3C2=O)C(=O)N1 (stereo not drawn) [EC2-060]    true
O=C1CCC(NC(=O)c2cccc(NC(=O)CCCCCCCCC(=O)Nc3cccc(C(=O)NC4CCC(=O)NC4=O)c3)c2)C(=O)N1 (stereo not drawn) [XS01-075]    true
O=C1C[C@H](NC(=O)c2cccc(NC(=O)CCCCCCC(=O)Nc3cccc(C(=O)N[C@H]4CC(=O)NC4=O)c3)c2)C(=O)N1 [XS01-066]    false
Cc1nc2cccc(NC(=O)CCc3cn(CC(=O)Nc4cccc5nc(C)n(C6CCC(=O)NC6=O)c(=O)c45)nn3)c2c(=O)n1C1CCC(=O)NC1=O (stereo not drawn) [XS01-132]    false
O=C1CCC(N2Cc3c(NC(=O)CCc4cn(CC(=O)Nc5cccc6c5C(=O)N(C5CCC(=O)NC5=O)C6=O)nn4)cccc3C2=O)C(=O)N1 (stereo not drawn) [XS01-125]    false
O=C1CCC(N2C(=O)c3cccc(NC(=O)CCCCCC(=O)Nc4cccc5c4C(=O)N(C4CCC(=O)NC4=O)C5=O)c3C2=O)C(=O)N1 (stereo not drawn) [EC1-119]    true
O=C1CCC(NC(=O)CCCCCCC(=O)NC2CCC(=O)NC2=O)C(=O)N1 (stereo not drawn) [XS01-093]    false
Cc1nc2cccc(C#CCOCCOCCOCC#Cc3cccc4nc(C)n(C5CCC(=O)NC5=O)c(=O)c34)c2c(=O)n1C1CCC(=O)NC1=O (stereo not drawn) [MA10-153]    false
O=C1CCC(N2Cc3c(CCCOCCOCCOCCOCCOCCCc4cccc5c4CN(C4CCC(=O)NC4=O)C5=O)cccc3C2=O)C(=O)N1 (stereo not drawn) [SM2-156]    true
O=C(/C=C/c1cccc2c1CN(C1CCC(=O)NC1=O)C2=O)NCCOCCOCCNC(=O)/C=C/c1cccc2c1CN(C1CCC(=O)NC1=O)C2=O (stereo not drawn) [SM3-003]    false
O=C(COc1cccc2c1C(=O)N(C1CCC(=O)NC1=O)C2=O)NCCCOCCCNC(=O)COc1cccc2c1C(=O)N(C1CCC(=O)NC1=O)C2=O (stereo not drawn) [SM2-126]    true
O=C1CCC(N2Cc3c(NCc4ccc(CNc5cccc6c5CN(C5CCC(=O)NC5=O)C6=O)cc4)cccc3C2=O)C(=O)N1 (stereo not drawn) [EC2-035]    false
Cc1nc2cccc(NC(=O)Cn3cc(CCCC(=O)Nc4cccc5c4CN(C4CCC(=O)NC4=O)C5=O)nn3)c2c(=O)n1C1CCC(=O)NC1=O (stereo not drawn) [XS01-123]    false
O=C1CCC(N2Cc3c(CCCOCCOCCCc4cccc5c4CN(C4CCC(=O)NC4=O)C5=O)cccc3C2=O)C(=O)N1 (stereo not drawn) [SM2-145]    true
O=C1CCC(NC(=O)CCCCCCCCC(=O)NC2CCC(=O)NC2=O)C(=O)N1 (stereo not drawn) [XS01-039]    true
O=C1CCC(N2C(=O)c3cccc(NCc4ccc(CNc5cccc6c5C(=O)N(C5CCC(=O)NC5=O)C6=O)cc4)c3C2=O)C(=O)N1 (stereo not drawn) [EC2-134]    true
O=C1CCC(N2C(=O)c3cccc(NC(=O)CCCCC(=O)Nc4cccc5c4C(=O)N(C4CCC(=O)NC4=O)C5=O)c3C2=O)C(=O)N1 (stereo not drawn) [EC1-120]    true
